Known IC50 of a selection of molecules
target: recombinant human Syk (GST-hSyk fusion protein) (Homo sapiens, UniProt P43405); construct: purchased Carna Biosciences 08-176; test: Homogeneous Time-Resolved Fluorescence (HTRF) assay for the recombinant human Syk enzyme; format: biochemical; details: IC50 class; 10-dose titration, 25 μM ATP; read-out: rhSYK Activity

Recorded IC50, per entry:
Molecule | IC50
Cc1cc(Nc2nccc(C(F)(F)F)n2)cc(-c2cnn(Cc3cc(C)no3)c2)c1 | ≤ 100 nM
Cc1cc(Nc2nccc(C(F)(F)F)n2)cc(-c2cnn3ccccc23)c1 | ≤ 100 nM
Cc1cc(Nc2nccc(C(F)F)n2)cc(-c2cnn(CCNC(=O)C3CC3)c2)c1 | ≤ 100 nM
Cc1cc(Nc2nccc(C(F)F)n2)cc(-c2cnn(CC3OC(=O)NC3C3CC3)c2)c1 (single isomer, unassigned) [Example 23.19] | ≤ 100 nM
Cc1cc(Nc2nccc(C(F)(F)F)n2)cc(-c2cnn(Cc3ccnnc3)c2)c1 | ≤ 100 nM

Tested on recombinant human Syk (GST-hSyk fusion protein) (Homo sapiens, UniProt P43405): Cc1cc(Nc2nccc(C(F)F)n2)cc(-c2cnn(C(C)C(C)(O)CO)c2)c1 (single isomer, unassigned) [Example 22.1] . Observed IC50: ≤ 100 nM

Tested on recombinant human Syk (GST-hSyk fusion protein) (Homo sapiens, UniProt P43405): Cc1cc(Nc2nccc(C(F)F)n2)cc(-c2cnn(CC(O)COCC(F)(F)F)c2)c1 (stereo not drawn) . Observed IC50: ≤ 100 nM

Tested on recombinant human Syk (GST-hSyk fusion protein) (Homo sapiens, UniProt P43405): CCOC(=O)CCc1cnn(-c2cc(C)cc(Nc3nccc(OC)n3)c2)c1 . Observed IC50: 100 to 1000 nM

Tested on recombinant human Syk (GST-hSyk fusion protein) (Homo sapiens, UniProt P43405): Cc1cc(Nc2nccc(C(F)F)n2)cc(-c2cnn(CC3CNC(=O)O3)c2)c1 (stereo not drawn) [Example 2.64] . Observed IC50: ≤ 100 nM

Tested on recombinant human Syk (GST-hSyk fusion protein) (Homo sapiens, UniProt P43405): COCC(=O)NCCn1cc(-c2cc(C)cc(Nc3nccc(C(F)F)n3)c2)cn1 . Observed IC50: ≤ 100 nM

Tested on recombinant human Syk (GST-hSyk fusion protein) (Homo sapiens, UniProt P43405): Cc1cc(Nc2nccc(C)n2)cc(-c2cnn(CC3OC(=O)NC3C(C)C)c2)c1 (single isomer, unassigned) [Example 23.15] . Observed IC50: ≤ 100 nM

Tested on recombinant human Syk (GST-hSyk fusion protein) (Homo sapiens, UniProt P43405): Cc1cc(Nc2nccc(C(F)(F)F)n2)cc(-c2ccnn2C)c1 . Observed IC50: 100 to 1000 nM

Tested on recombinant human Syk (GST-hSyk fusion protein) (Homo sapiens, UniProt P43405): Cc1cc(Nc2nccc(C)n2)cc(-c2cnn(CC3OC(=O)NC3(C)C)c2)c1 (stereo not drawn) [Example 3.106] . Observed IC50: ≤ 100 nM

Tested on recombinant human Syk (GST-hSyk fusion protein) (Homo sapiens, UniProt P43405): Cc1cc(Nc2nccc(C(F)F)n2)cc(-c2cnn(CC3OC(=O)NC3C)c2)c1 (single isomer, unassigned) [Example 23.9] . Observed IC50: ≤ 100 nM

Tested on recombinant human Syk (GST-hSyk fusion protein) (Homo sapiens, UniProt P43405): Cc1cc(Nc2nccc(C(F)(F)F)n2)cc(-c2cnn(C(C)C(C)(O)CO)c2)c1 (single isomer, unassigned) [Example 21.11] . Observed IC50: ≤ 100 nM

Tested on recombinant human Syk (GST-hSyk fusion protein) (Homo sapiens, UniProt P43405): Cc1cc(Nc2nccc(C(F)F)n2)cc(-c2cnn(CC(O)(CO)C(F)(F)F)c2)c1 (single isomer, unassigned) [Example 25.1] . Observed IC50: ≤ 100 nM

Tested on recombinant human Syk (GST-hSyk fusion protein) (Homo sapiens, UniProt P43405): COc1nc(Nc2cc(C)cc(-c3cnn(CCC(N)=O)c3)c2)ncc1F . Observed IC50: ≤ 100 nM

Tested on recombinant human Syk (GST-hSyk fusion protein) (Homo sapiens, UniProt P43405): Cc1cc(Nc2nccc(C(F)(F)F)n2)cc(-c2c(C)n[nH]c2C)c1 . Observed IC50: 100 to 1000 nM

Tested on recombinant human Syk (GST-hSyk fusion protein) (Homo sapiens, UniProt P43405): Cc1cc(Nc2nccc(C(F)F)n2)cc(-c2cnn(C(C)C3CNC(=O)C3)c2)c1 (stereo not drawn) [Example 2.68] . Observed IC50: ≤ 100 nM

Tested on recombinant human Syk (GST-hSyk fusion protein) (Homo sapiens, UniProt P43405): Cc1cc(Nc2nccc(C(F)(F)F)n2)cc(-c2cnn(CC3(O)CCN(CC(=O)O)CC3)c2)c1 . Observed IC50: ≤ 100 nM

Tested on recombinant human Syk (GST-hSyk fusion protein) (Homo sapiens, UniProt P43405): Cc1cc(Nc2nccc(C(F)F)n2)cc(-c2cnn(C3CCCC(O)C3O)c2)c1 (single isomer, unassigned) [Example 10.6] . Observed IC50: ≤ 100 nM

Tested on recombinant human Syk (GST-hSyk fusion protein) (Homo sapiens, UniProt P43405): Cc1cc(Nc2nccc(C(F)(F)F)n2)cc(-c2cnn(CC3CN(C)C(=O)O3)c2)c1 (single isomer, unassigned) [Example 3.1] . Observed IC50: ≤ 100 nM

Tested on recombinant human Syk (GST-hSyk fusion protein) (Homo sapiens, UniProt P43405): Cc1cc(Nc2nccc(C)n2)cc(-c2cnn(CC(C)(O)CO)c2)c1 (single isomer, unassigned) [Example 25.4] . Observed IC50: ≤ 100 nM

Tested on recombinant human Syk (GST-hSyk fusion protein) (Homo sapiens, UniProt P43405): Cc1cc(Nc2nccc(C(F)(F)F)n2)cc(-c2cnn(C[C@]3(O)CC[C@@H](C(=O)O)CC3)c2)c1 . Observed IC50: ≤ 100 nM

Tested on recombinant human Syk (GST-hSyk fusion protein) (Homo sapiens, UniProt P43405): COC(=O)C1CCC(n2cc(-c3cc(C)cc(Nc4nccc(C(F)(F)F)n4)c3)cn2)c2ccccc21 (stereo not drawn) . Observed IC50: 100 to 1000 nM

Tested on recombinant human Syk (GST-hSyk fusion protein) (Homo sapiens, UniProt P43405): Cc1cc(Nc2nccc(C(F)F)n2)cc(-c2cnn(C3CCC(O)C3(C)O)c2)c1 (stereo not drawn) [Example 22.13] . Observed IC50: ≤ 100 nM

Tested on recombinant human Syk (GST-hSyk fusion protein) (Homo sapiens, UniProt P43405): CCOC(=O)C(O)Cn1cc(-c2cc(C)cc(Nc3nccc(C(F)F)n3)c2)cn1 (stereo not drawn) . Observed IC50: ≤ 100 nM

Tested on recombinant human Syk (GST-hSyk fusion protein) (Homo sapiens, UniProt P43405): Cc1cc(Nc2nccc(C(F)(F)F)n2)cc(-c2cnn(Cc3noc(C)n3)c2)c1 . Observed IC50: ≤ 100 nM

Tested on recombinant human Syk (GST-hSyk fusion protein) (Homo sapiens, UniProt P43405): Cc1cc(Nc2nccc(C(F)(F)F)n2)cc(-n2cc(C3(O)CCC(C(=O)O)CC3)cn2)c1 (stereo not drawn) [Example 19.10] . Observed IC50: 100 to 1000 nM

Tested on recombinant human Syk (GST-hSyk fusion protein) (Homo sapiens, UniProt P43405): Cc1cc(Nc2nccc(C(F)F)n2)cc(-c2cnn(CC3CC(=O)NC34CC4)c2)c1 (stereo not drawn) [Example 3.90] . Observed IC50: ≤ 100 nM
